These measurements were taken from the supplement of paper PMC4862054.

# Tested on: MDA-MB-231
# MEASUREMENT_PROTOCOL: normalised response (% of control), CellTox Green; higher = less cell death (100 = DMSO, 0 = benzethonium chloride kill control)
# CONDITIONS: incubation time: 72 h
Entries and their measured normalised response follow.
OUTCOME_MEASURE: normalised response (%)

[
  {
    "COMPOUND": "CC[C@H](CC#N)OC(=O)N[C@@H](C)c1cccc(NC(=O)Nc2ccc(-c3cnco3)c(OC)c2)c1 [AVN944] (10000 nM)",
    "READING": 110
  },
  {
    "COMPOUND": "Cn1nnc2c(C(N)=O)ncn2c1=O [Temozolomide] (100 nM)",
    "READING": 110
  },
  {
    "COMPOUND": "C[C@@H](C(=O)O)c1ccc(-c2ccccc2)c(F)c1 [Tarenflurbil] (100 nM)",
    "READING": 96.1
  }
]

###

# Test system: MDA-MB-231
# MEASUREMENT_PROTOCOL: drug sensitivity score (DSS), CellTiter-Blue viability (DSS (AUC-based score)); higher = stronger viability inhibition; extreme values may be limits of the assay
# CONDITIONS: incubation time: 72 h

[
  {
    "MOLECULE": "NC(=O)c1cccc2cn(-c3ccc([C@@H]4CCCNC4)cc3)nc12",
    "drug sensitivity score": 0
  },
  {
    "MOLECULE": "CC(C)C[C@H](NC(=O)[C@H](CCc1ccccc1)NC(=O)CN1CCOCC1)C(=O)N[C@@H](Cc1ccccc1)C(=O)N[C@@H](CC(C)C)C(=O)[C@@]1(C)CO1",
    "drug sensitivity score": 25.5
  },
  {
    "MOLECULE": "C[C@]12C=CC(=O)C=C1CC[C@@H]1[C@@H]2C(=O)C[C@@]2(C)[C@H]1CC[C@]2(O)C(=O)CO",
    "drug sensitivity score": 0
  },
  {
    "MOLECULE": "Cc1c(N)nc([C@H](CC(N)=O)NC[C@H](N)C(N)=O)nc1C(=O)N[C@H](C(=O)N[C@H](C)[C@@H](O)[C@H](C)C(=O)N[C@H](C(=O)NCCc1nc(-c2nc(C(=O)NCCC[S+](C)C)cs2)cs1)[C@@H](C)O)[C@@H](OC1OC(CO)C(O)C(O)C1OC1OC(CO)C(O)C(OC(N)=O)C1O)c1cnc[nH]1 (stereo partly drawn)",
    "drug sensitivity score": 6.41
  },
  {
    "MOLECULE": "Nc1nc(Cl)nc2c1ncn2[C@@H]1O[C@H](CO)[C@@H](O)[C@@H]1F",
    "drug sensitivity score": 12
  },
  {
    "MOLECULE": "N[C@@H](Cc1ccc(N(CCCl)CCCl)cc1)C(=O)O",
    "drug sensitivity score": 0
  },
  {
    "MOLECULE": "C[C@@H](C(=O)O)c1ccc(-c2ccccc2)c(F)c1",
    "drug sensitivity score": 0
  },
  {
    "MOLECULE": "O=C(O)CC[C@H]1CC[C@@](c2cc(F)ccc2F)(S(=O)(=O)c2ccc(Cl)cc2)CC1",
    "drug sensitivity score": 0
  }
]

###

# System: HDQ-P1
# MEASUREMENT_PROTOCOL: normalised viability (% of control), CellTiter-Blue; higher = more viable cells (about 100 = DMSO control)
# CONDITIONS: incubation time: 72 h

[
  {
    "COMPOUND": "NC(=O)c1cccc2cn(-c3ccc([C@@H]4CCCNC4)cc3)nc12 [MK-4827] (300 nM)",
    "normalised viability [%]": 75.7
  },
  {
    "COMPOUND": "O=C(O)CC[C@H]1CC[C@@](c2cc(F)ccc2F)(S(=O)(=O)c2ccc(Cl)cc2)CC1 [MK-0752] (30 nM)",
    "normalised viability [%]": 93
  },
  {
    "COMPOUND": "Cn1nnc2c(C(N)=O)ncn2c1=O [Temozolomide] (300 nM)",
    "normalised viability [%]": 72.5
  },
  {
    "COMPOUND": "CO[C@H]1C[C@@H]2CC[C@@H](C)[C@@](O)(O2)C(=O)C(=O)N2CCCC[C@H]2C(=O)O[C@H]([C@H](C)C[C@@H]2CC[C@@H](O)[C@H](OC)C2)CC(=O)[C@H](C)/C=C(\\C)[C@@H](O)[C@@H](OC)C(=O)[C@H](C)C[C@H](C)/C=C/C=C/C=C/1C [Sirolimus] (30 nM)",
    "normalised viability [%]": 60.8
  },
  {
    "COMPOUND": "Cc1cc2c(F)c(Oc3ncnn4cc(OC[C@@H](C)O)c(C)c34)ccc2[nH]1 [Brivanib] (30 nM)",
    "normalised viability [%]": 65.1
  },
  {
    "COMPOUND": "CCN(CC)CCOc1ccc(C(=C(Cl)c2ccccc2)c2ccccc2)cc1 [Clomifene] (300 nM)",
    "normalised viability [%]": 105
  },
  {
    "COMPOUND": "COc1cc2c(Oc3ccc(NC(=O)C4(C(=O)Nc5ccc(F)cc5)CC4)cc3F)ccnc2cc1OCCCN1CCOCC1 [Foretinib] (30 nM)",
    "normalised viability [%]": 59.1
  },
  {
    "COMPOUND": "COc1cc2c(N3CCN(C(=O)Nc4ccc(OC(C)C)cc4)CC3)ncnc2cc1OCCCN1CCCCC1 [Tandutinib] (30 nM)",
    "normalised viability [%]": 70.4
  },
  {
    "COMPOUND": "C[C@]12C=CC(=O)C=C1CC[C@@H]1[C@@H]2C(=O)C[C@@]2(C)[C@H]1CC[C@]2(O)C(=O)CO [Prednisone] (300 nM)",
    "normalised viability [%]": 50.2
  },
  {
    "COMPOUND": "O=C(c1cc(Cc2n[nH]c(=O)c3ccccc23)ccc1F)N1CCN(C(=O)C2CC2)CC1 [Olaparib] (300 nM)",
    "normalised viability [%]": 73.9
  },
  {
    "COMPOUND": "Cc1c(N)nc([C@H](CC(N)=O)NC[C@H](N)C(N)=O)nc1C(=O)N[C@H](C(=O)N[C@H](C)[C@@H](O)[C@H](C)C(=O)N[C@H](C(=O)NCCc1nc(-c2nc(C(=O)NCCC[S+](C)C)cs2)cs1)[C@@H](C)O)[C@@H](OC1OC(CO)C(O)C(O)C1OC1OC(CO)C(O)C(OC(N)=O)C1O)c1cnc[nH]1 (stereo partly specified) [Bleomycin] (300 nM)",
    "normalised viability [%]": 72.9
  }
]
